Biological target: T1, 4H3974-bH
T1 chain: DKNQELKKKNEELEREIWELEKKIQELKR
Assay: two-hybrid library CCNG1;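 further: natural log of median RNA to DNA barcode read ratio; higher means stronger binding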
Entries whose interaction score is below 0.7 take TRUE; entries at or above 0.7 take FALSE.

binder	assigned_class
DKNQELEKEIEELERKNWELKKEIQELER [4H3129-bH]	TRUE
DENQELKKEIEELEREIWELEKKNQELKR [4H1544-bH]	TRUE
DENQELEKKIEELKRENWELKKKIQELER [4H1373-bH]	TRUE
DKNQELKKEIEELERKNWELEKKIQELKR [4H3638-bH]	TRUE
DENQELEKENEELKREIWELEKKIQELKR [4H1222-bH]	FALSE
DKNQELKKENEELKRKIWELKKEIQELER [4H3817-bH]	FALSE
DENQELEKKNEELERKIWELKKEIQELER [4H1449-bH]	FALSE
DENQELKKEIEELKRENWELKKKIQELER [4H1629-bH]	TRUE
DKNQELEKKIEELKRENWELEKKIQELKR [4H3414-bH]	TRUE
DKNQELKKEIEELERKIWELKKENQELKR [4H3628-bH]	FALSE
DKNQELEKEIEELKRKIWELEKENQELKR [4H3172-bH]	TRUE
DKNQELKKKNEELEREIWELEKKIQELKR [4H3974-bH]	TRUE
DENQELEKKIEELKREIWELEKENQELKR [4H1348-bH]	FALSE
